# measurement-notes: HoxA9-arrested leukemia cell differentiation promoters – flow cytometry, MLPCN library, primary screen (AID 624256)
# condition-context: ER-HoxA9 myeloid progenitors, lysozyme-GFP differentiation, at 10 µM
Screen size: about 360,000 compounds; about 3,700 (1%) were called active. Inconclusive results (about 2%) are left out.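 Rule for the calls: active = normalized GFP-positive differentiation at or above the plate's own cutoff, the solvent-only control mean plus 3 SD; inconclusive = no clear call, values can overlap the other calls; inactive = the rest.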 The list comes from a sample in which actives are over-represented; it also holds close analogues and randomly drawn compounds.
Your reply should match one of these outcome classes. TRUE = active, FALSE = inactive

[in] Hello, I am checking results. What call was entered for CCN(CC)S(=O)(=O)c1ccc(N2CCCC2)c(NC(=O)c2ccc([N+](=O)[O-])o2)c1 ?
[out] TRUE

[in] Hello, I am checking results. What call was entered for Cc1ccc(Cc2c(-c3ccco3)nc3ccc(Cl)cn23)cc1 ?
[out] FALSE

[in] Hello, I am checking results. What call was entered for Cc1[nH]c(=O)c(C(=O)/C=C/c2ccccc2)c2c1CCCC2 ?
[out] TRUE

[in] Hello, I am checking results. What call was entered for COc1ccc(S(=O)(=O)N[C@@H]2C=C[C@@H](CC(=O)N3CCc4ccccc4C3)O[C@@H]2CO)cc1 ?
[out] FALSE

[in] Hello, I am checking results. What call was entered for CCCCn1c(N)c(N(CCOC)C(=O)c2cccc(S(=O)(=O)N3CCCCC3)c2)c(=O)[nH]c1=O ?
[out] FALSE

[in] Hello, I am checking results. What call was entered for CCOC1=C2[C@@H](CN(S(=O)(=O)c3ccc(C)cc3)[C@H]2c2ccccc2F)[C@H]2C(=O)N(Cc3ccccc3)C(=O)[C@H]2C1 ?
[out] FALSE

[in] Hello, I am checking results. What call was entered for CCN(CC)S(=O)(=O)c1ccc(N2CCOCC2)c(NC(=O)c2ccc(=O)n(C)n2)c1 ?
[out] FALSE

[in] Hello, I am checking results. What call was entered for COC(=O)c1c(C)[nH]c(C(=O)/C=C/c2ccc(Cl)cc2)c1C ?
[out] FALSE

[in] Hello, I am checking results. What call was entered for O=C1NC[C@H](CCCCN2C[C@H](Cc3ccccc3)N(Cc3ccccc3)C(=O)C2=O)N(CCc2ccc(O)cc2)C1=O ?
[out] FALSE

----------
# measurement-notes: HoxA9-arrested leukemia cell differentiation promoters – flow cytometry, MLPCN library, primary screen (AID 624256);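 for GFP+ MAC1+ double positive: cells exposed to compound for four days before flow analysis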
# condition-context: ER-HoxA9 myeloid progenitors, lysozyme-GFP differentiation, at 10 µM; measured here: differentiation confirmed by MAC1 staining, stronger effect = higher value
The campaign covered roughly 360,000 compounds. About 3,700 (1%) were called active. About 2% were inconclusive and are not listed. The list comes from a sample in which actives are over-represented; it also holds close analogues and randomly drawn compounds.
observed-property: GFP+ MAC1+ double positive (%)
// return numeric value only (unit: %, not printed)

[in] Fill blank: measured GFP+ MAC1+ double positive of the compound COc1ccc(C(=O)C[n+]2ccc(N)c(C)c2C)cc1 is ____.
[out] 10.1

[in] Fill blank: measured GFP+ MAC1+ double positive of the compound CO/N=C/CC(=O)c1ccc(OC)cc1 is ____.
[out] 0.8

[in] Fill blank: measured GFP+ MAC1+ double positive of the compound COc1ccc(C(=O)C(OP(=O)(OC)OC)c2ccccc2OC)cc1 (stereo unspecified) is ____.
[out] 2

[in] Fill blank: measured GFP+ MAC1+ double positive of the compound O=C(c1cc(-c2ccco2)nc2ccccc12)N(Cc1nnc(-c2ccc(Cl)cc2)o1)C1CC1 is ____.
[out] 1.9

[in] Fill blank: measured GFP+ MAC1+ double positive of the compound COc1ccc(C2(O)C(=O)Nc3ccccc32)cc1 (stereo unspecified) is ____.
[out] 0.4

[in] Fill blank: measured GFP+ MAC1+ double positive of the compound Cc1cc(O)c(C2(O)C(=O)Nc3ccccc32)cc1C (stereo unspecified) is ____.
[out] 0.4

[in] Fill blank: measured GFP+ MAC1+ double positive of the compound CC1(C(=O)NS(=O)(=O)c2cccc(F)c2)CCN1C(=O)Cc1ccc(Cl)cc1Cl (stereo unspecified) is ____.
[out] 0.9

[in] Fill blank: measured GFP+ MAC1+ double positive of the compound CC1CCCN(C(=O)c2cc(-c3ccco3)nc3ccccc23)C1 (stereo unspecified) is ____.
[out] 0.2

[in] Fill blank: measured GFP+ MAC1+ double positive of the compound CCCCCNC(=O)C(c1ccc(OC)cc1)n1c(=O)c(-c2ccccc2)nc2ccccc21 (stereo unspecified) is ____.
[out] 2.6

[in] Fill blank: measured GFP+ MAC1+ double positive of the compound CN(C)C(CNC(=O)c1cccc(S(=O)(=O)N2CCc3ccccc3C2)c1)c1ccccc1 (stereo unspecified) is ____.
[out] 0.7

[in] Fill blank: measured GFP+ MAC1+ double positive of the compound Cc1cccc(CC2(O)C(=O)Nc3ccccc32)n1 (stereo unspecified) is ____.
[out] 29.8
